System: Platelet aggregation induced with PAF
Assay: Test 1: inhibition of PAF-induced platelet aggregation in platelet rich plasma
Assay type: cell-based, Japanese white rabbit
Details: Oryctolagus cuniculus, rabbit PRP, 5×10^5 cells/mm^3, final concentration of PAF usually 20 nM
Strictly below 0.6 µg/mL in IC50: y. Otherwise: n.

Solved entries (count: 6):
Molecule	Cat
CC(C)C[C@H]1NC(=O)[C@@H](Cc2cn(C)c3ccccc23)NC1=O [Test compound 2]	n
CSCC[C@H]1NC(=O)[C@@H](Cc2c(-c3ccccc3)n(C)c3ccccc23)NC1=O [Test compound 13]	n
Cn1cc(C[C@H]2NC(=O)[C@@H](Cc3cn(C)c4ccccc34)NC2=O)c2ccccc21 [Test compound 7]	n
CSCC[C@H]1NC(=O)[C@@H]([C@@H](C)c2cccc3ccccc23)NC1=O [Test compound 12]	n
CSCCCC1NC(=O)[C@@H](Cc2cn(C)c3ccccc23)NC1=O (single isomer, unassigned) [Test compound 5]	y
CCCC[C@H]1NC(=O)[C@@H](Cc2cn(C)c3ccccc23)NC1=O [Test compound 8]	y

Alright, here's another molecule for you.
Field: below-cutoff. Rule: recorded IC50 strictly less than 0.6 µg/mL. Subject: CSCC[C@H]1NC(=O)[C@@H](Cc2cccc3ccccc23)NC1=O [Test compound 10]
y
